Entry source: patent US20250296922A1

assayed.system: CYP3A (printed CYP3A-M) (Homo sapiens)
Sequence (P08684 2-503 limits assumed): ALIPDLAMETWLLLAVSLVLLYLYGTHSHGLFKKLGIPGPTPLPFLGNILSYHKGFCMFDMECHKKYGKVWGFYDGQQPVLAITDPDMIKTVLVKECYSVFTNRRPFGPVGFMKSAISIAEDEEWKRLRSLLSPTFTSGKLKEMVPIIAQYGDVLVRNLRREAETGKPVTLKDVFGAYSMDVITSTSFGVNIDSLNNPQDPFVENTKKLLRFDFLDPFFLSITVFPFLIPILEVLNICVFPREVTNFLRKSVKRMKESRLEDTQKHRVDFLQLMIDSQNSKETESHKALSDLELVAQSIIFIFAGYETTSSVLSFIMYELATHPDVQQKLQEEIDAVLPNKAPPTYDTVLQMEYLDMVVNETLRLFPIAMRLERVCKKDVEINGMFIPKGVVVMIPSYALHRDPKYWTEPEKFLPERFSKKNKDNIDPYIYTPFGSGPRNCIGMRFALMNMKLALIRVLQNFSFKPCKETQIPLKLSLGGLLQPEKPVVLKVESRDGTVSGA
run.description: Human liver microsomal CYP inhibition test, CYP3A-M (midazolam)
Format: in vitro ADME
conditions: human, microsomes
reported.metric: IC50 at 10 min

Field IC50 at 10 min (entry COc1c([C@H]2[C@H](C(=O)Nc3ccnc(C(N)=O)c3)O[C@@](C)(C(F)(F)F)[C@H]2C)ccc(F)c1F [VX-548, reference compound] ) reads > 50 µM

###

assayed.system: CYP1A2 (Homo sapiens (Human))
Sequence (P05177 whole entry): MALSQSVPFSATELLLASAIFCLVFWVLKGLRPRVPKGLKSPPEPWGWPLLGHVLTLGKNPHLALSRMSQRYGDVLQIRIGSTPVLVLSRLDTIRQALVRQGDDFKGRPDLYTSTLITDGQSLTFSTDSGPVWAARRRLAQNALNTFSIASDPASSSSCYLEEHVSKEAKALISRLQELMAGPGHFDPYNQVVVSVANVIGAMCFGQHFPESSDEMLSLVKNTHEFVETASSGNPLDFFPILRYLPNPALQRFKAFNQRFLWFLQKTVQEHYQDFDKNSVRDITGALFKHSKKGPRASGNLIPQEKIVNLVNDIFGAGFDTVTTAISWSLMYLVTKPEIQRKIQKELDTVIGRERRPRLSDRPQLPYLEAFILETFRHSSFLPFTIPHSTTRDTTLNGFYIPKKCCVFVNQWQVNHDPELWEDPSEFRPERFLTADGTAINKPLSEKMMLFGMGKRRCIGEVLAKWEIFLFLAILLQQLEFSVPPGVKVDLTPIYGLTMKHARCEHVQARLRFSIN
run.description: Human liver microsomal CYP inhibition test, CYP1A2
Type: in vitro ADME
conditions: human liver microsomes 0.2 mg/mL; substrate Phenacetin; read-out: IC50 (μM) CYP1A2
reported.metric: IC50

Field IC50 (entry COc1c([C@H]2[C@H](C(=O)Nc3ccnc(C(N)=O)c3)O[C@@](C)(C(F)(F)F)[C@H]2C)ccc(F)c1F [VX-548, reference compound] ) reads > 50 µM

Field IC50 (entry COc1c([C@H]2[C@H](C(=O)Nc3ccc[n+]([O-])c3)N[C@@](C)(C(F)(F)F)[C@H]2C)ccc(F)c1F ) reads > 50 µM
